This section presents compounds with their documented pIC50 values.
System: NCI-H510 multicellular tumor spheroid growth, % test/control
PROTOCOL: Anticancer human tumor NCI-H510 cell line growth inhibition [Asc];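 further: spheroids exposed to agents for 7 days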
EXPERIMENTAL SETUP: curve of first compound; second compound 0.0949 µM
pIC50: −log10 of the molar value.
ENDPOINT NAME: pIC50

>>> recorded_number("Cn1ncnc1[C@H]1c2n[nH]c(=O)c3cc(F)cc(c23)N[C@@H]1c1ccc(F)cc1 + CCN1C(C(=O)NC23CCC(C(=O)O)(CC2)CC3)C(c2cccc(Cl)c2F)C2(C(=O)Nc3cc(Cl)ccc32)C12CCCCC2")
8.04
>>> recorded_number("O=C(c1cc(Cc2n[nH]c(=O)c3ccccc23)ccc1F)N1CCN(C(=O)C2CC2)CC1 + CCN1C(C(=O)NC23CCC(C(=O)O)(CC2)CC3)C(c2cccc(Cl)c2F)C2(C(=O)Nc3cc(Cl)ccc32)C12CCCCC2")
5.69
